B1: TPR 5TU (parent)
chain: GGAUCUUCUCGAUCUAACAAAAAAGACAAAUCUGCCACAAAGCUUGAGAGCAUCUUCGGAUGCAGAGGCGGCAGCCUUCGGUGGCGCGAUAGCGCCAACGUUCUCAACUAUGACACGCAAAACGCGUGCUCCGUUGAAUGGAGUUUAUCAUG

Variants of: B1
test-protocol: polymerase ribozyme fitness, log enrichment relative to wild type (log ratio); higher = more active; in vitro selection for triplet polymerase activity
Variants at the floor of the assay were thinned out.
Catalogue of variants with associated polymerase ribozyme fitness (log ratio)
observable: polymerase ribozyme fitness (log ratio)

>  <mutation-string>
C76A C125G U144G

>  <measurement-qualifier>
=

>  <quantitative-readout>
-2.22

$$$$
>  <mutation-string>
A37U C51G G88A

>  <measurement-qualifier>
≤

>  <quantitative-readout>
-4.2

$$$$
>  <mutation-string>
U61A A97G G136A

>  <measurement-qualifier>
=

>  <quantitative-readout>
-0.653

$$$$
>  <mutation-string>
C38A C76U A110G A113G G152A

>  <measurement-qualifier>
≤

>  <quantitative-readout>
-4.2

$$$$
>  <mutation-string>
C36A C54G C57A G86A U139G

>  <measurement-qualifier>
≤

>  <quantitative-readout>
-4.2

$$$$
>  <mutation-string>
A40G C85A G133C G136A

>  <measurement-qualifier>
=

>  <quantitative-readout>
-3.86

$$$$
>  <mutation-string>
G50A C95U C125U

>  <measurement-qualifier>
=

>  <quantitative-readout>
-2.44

$$$$
>  <mutation-string>
G25C A60G G83C C96U G141U

>  <measurement-qualifier>
=

>  <quantitative-readout>
-2.48

$$$$
>  <mutation-string>
A23C A26U U33G C76A U101G U145G

>  <measurement-qualifier>
≤

>  <quantitative-readout>
-4.2

$$$$
>  <mutation-string>
A16U A39G A89C C95U G152C

>  <measurement-qualifier>
≤

>  <quantitative-readout>
-4.2

$$$$
>  <mutation-string>
C27A C54U A91C G94C

>  <measurement-qualifier>
≤

>  <quantitative-readout>
-4.2

$$$$

Data provenance: the RNAGym collection of RNA variant scans (doi:10.1073/pnas.2313332121)
